- system.name: T1, recombinant human IGSF8 extracellular domain tagged by a human Fc region (IGSF8-hFc) (human, UniProt Q969P0 28-579, biotin label in Examples 17, 18 and 28 (site not given))
- T1 construct: also called IGSF8-Fc fusion protein; IGSF8-hFc-biotin; not shown: human Fc region
- T1 sequence: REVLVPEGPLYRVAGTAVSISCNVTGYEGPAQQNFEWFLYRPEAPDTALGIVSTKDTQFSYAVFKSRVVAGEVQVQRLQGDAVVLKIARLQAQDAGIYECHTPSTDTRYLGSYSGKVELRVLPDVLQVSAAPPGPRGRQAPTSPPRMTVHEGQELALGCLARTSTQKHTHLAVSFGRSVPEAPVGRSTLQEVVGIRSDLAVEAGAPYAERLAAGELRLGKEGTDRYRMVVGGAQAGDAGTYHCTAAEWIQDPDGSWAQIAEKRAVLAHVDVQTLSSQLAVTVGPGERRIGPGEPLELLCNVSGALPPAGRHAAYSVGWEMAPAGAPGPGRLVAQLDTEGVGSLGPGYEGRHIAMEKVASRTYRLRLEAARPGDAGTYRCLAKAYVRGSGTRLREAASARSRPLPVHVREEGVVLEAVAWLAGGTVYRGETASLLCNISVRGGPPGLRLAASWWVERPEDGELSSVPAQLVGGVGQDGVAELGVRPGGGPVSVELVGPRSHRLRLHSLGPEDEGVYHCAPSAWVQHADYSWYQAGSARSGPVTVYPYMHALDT
- experimental.details: SPR, Ab captured
measured.quantity: koff (s⁻¹)
Answer in s⁻¹, number only, no unit symbol.

Notebook: L1-25 (antibody, V domains shown) VH: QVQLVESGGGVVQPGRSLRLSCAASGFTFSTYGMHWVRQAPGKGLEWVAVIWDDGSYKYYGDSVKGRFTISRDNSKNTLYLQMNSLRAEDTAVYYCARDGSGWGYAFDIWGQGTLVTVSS VL: DIQLTQSPSSLSASVGDRVTITCQASQDISPWLNWYQHKPGKAPKPLVFGSPNLETGVPSRFSASGSGTDFTLTISSLQPEDFATYYCQQYDSFPYTFGQGTKVEIK , koff read as 0.0022

Next binder, koff to be filled in.
Notebook: L2VH-R98K (antibody, V domains shown) VH: EVQLVESGGGLEQPGGSLRLSCAGSGFTFRDYAMTWVRQAPGKGLEWVSSISGSGGNTYYADSVKGRFTISRDNSKNTLYLQMNSLRAEDTAIYYCAKGEYSSGWPSWFDPWGQGTLVTVSS VL: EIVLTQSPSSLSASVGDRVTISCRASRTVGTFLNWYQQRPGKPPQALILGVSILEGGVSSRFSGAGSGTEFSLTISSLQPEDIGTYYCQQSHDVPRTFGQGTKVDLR , koff read as 0.00248
